Target: recombinant human IDE42-1019 (Homo sapiens, UniProt P14735)
Construct: recombinant human IDE42-1019 (R&D Systems); purchased R&D Systems
Assay: Protease assay with fluorogenic peptide substrate Mca-[…](Dnp)-OH
Type: biochemical
Conditions: fluorogenic peptide Mca-RPPGFSAFK(Dnp)-OH; apparent IC50 for compounds with submaximal inhibition; read-out: IC50 (μM) Proteolysis
Measure: IC50

| Input smiles | Observed value |
| --- | --- |
| O=C(CC1CC1)N1CC(=O)N2[C@H](C1)[C@H](c1ccc(C#Cc3ccccc3)cc1)[C@@H]2CO | > 20 µM |
| Cc1ccccc1S(=O)(=O)N1CCCCN2[C@H](CO)[C@@H](c3ccccc3)[C@@H]2C1 | > 100 µM |
| COc1ccccc1NC(=O)N1CCCCN2[C@H](CO)[C@@H](c3ccc(-c4cccc(C)c4)cc3)[C@@H]2C1 | > 10 µM |
| Cc1cccc(-c2ccc(C3CCN(S(=O)(=O)c4cc5ccccc5o4)CC3)cc2)c1C | > 100 µM |
| OC[C@H]1[C@@H](c2ccc(C#Cc3ccccc3)cc2)[C@@H]2CN(Cc3cncnc3)CCCCN12 | < 10 µM |
| O=C(c1ccccn1)N1CC(=O)N2[C@@H](CO)[C@@H](c3ccc(C#Cc4ccccc4)cc3)[C@@H]2C1 | < 10 µM |
| Cc1ccccc1-c1ccc([C@H]2[C@H](CO)N3C(=O)CN(S(C)(=O)=O)C[C@@H]23)cc1 | > 100 µM |
| COc1cccc(-c2ccc([C@@H]3[C@@H](CO)N4CCCCN(CC5CCOCC5)C[C@@H]34)cc2)c1 | > 100 µM |
| Cc1ccccc1-c1ccc([C@H]2[C@H](CO)N3C(=O)CN(C(=O)c4cccnc4)C[C@@H]23)cc1 | > 10 µM |

---

Molecular target: Human N-His6-IDE42-1019 (E. coli expressed) (Homo sapiens)
Construct: Human N-His6-IDE42-1019 (E. coli expressed); made in house; host or cells: E. coli (Rosetta 2 (DE3) pLysS, plasmid pTrcHis-A)
Sequence (P14735 42-1019): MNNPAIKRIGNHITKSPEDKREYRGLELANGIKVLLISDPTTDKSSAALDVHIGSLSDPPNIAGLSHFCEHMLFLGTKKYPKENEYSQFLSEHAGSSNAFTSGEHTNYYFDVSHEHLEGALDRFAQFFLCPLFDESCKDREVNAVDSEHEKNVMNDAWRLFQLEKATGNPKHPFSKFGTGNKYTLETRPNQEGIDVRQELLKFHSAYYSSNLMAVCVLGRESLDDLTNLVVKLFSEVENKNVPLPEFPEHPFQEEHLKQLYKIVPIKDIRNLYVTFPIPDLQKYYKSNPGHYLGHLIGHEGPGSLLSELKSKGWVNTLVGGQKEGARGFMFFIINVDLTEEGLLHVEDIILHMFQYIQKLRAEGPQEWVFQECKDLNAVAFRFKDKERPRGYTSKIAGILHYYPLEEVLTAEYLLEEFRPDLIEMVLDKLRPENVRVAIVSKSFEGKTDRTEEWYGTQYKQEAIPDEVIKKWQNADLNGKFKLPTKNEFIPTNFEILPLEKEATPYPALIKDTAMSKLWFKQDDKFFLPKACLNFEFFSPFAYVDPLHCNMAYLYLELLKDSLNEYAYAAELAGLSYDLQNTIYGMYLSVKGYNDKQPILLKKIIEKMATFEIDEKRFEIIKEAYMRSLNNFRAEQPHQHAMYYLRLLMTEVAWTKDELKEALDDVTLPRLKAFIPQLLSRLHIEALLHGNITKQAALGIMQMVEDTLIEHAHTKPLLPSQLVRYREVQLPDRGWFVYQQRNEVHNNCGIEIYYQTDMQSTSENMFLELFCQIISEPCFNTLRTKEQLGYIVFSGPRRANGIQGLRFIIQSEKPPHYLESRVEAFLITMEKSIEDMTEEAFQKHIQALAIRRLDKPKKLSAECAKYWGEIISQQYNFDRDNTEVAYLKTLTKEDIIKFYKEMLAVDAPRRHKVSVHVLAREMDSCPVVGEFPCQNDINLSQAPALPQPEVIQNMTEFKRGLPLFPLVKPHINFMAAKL
Assay: Fluorescence anisotropy high-throughput screening assay (displacement of probe FL-6b)
Format: binding
Details: final compound concentration 20 μM (6bK control 1 μM); values without asterisk
Listing: Average Z-score (Fluorescence anisotropy) of selected molecules
Measure: Average Z-score (Fluorescence anisotropy)

| Molecule | Observed value |
| --- | --- |
| Cc1ccccc1-c1ccc([C@@H]2[C@H]3CN(C(=O)Cc4ccccn4)CC(=O)N3[C@H]2CO)cc1 [compound 140] | −17.72 |
| OC[C@H]1[C@@H](c2ccc(C#Cc3ccccc3)cc2)[C@@H]2CN(Cc3cncnc3)CCCCN12 [compound 525] | −16.2 |
| Cc1ccccc1-c1ccc([C@H]2[C@@H](CO)N3CCCCN(C(=O)c4cccnc4)C[C@H]23)cc1 [compound 397] | −11.37 |
| COc1ccccc1-c1ccc(C2C3CN(C(=O)c4cccnc4)CC2N3)cc1 (stereo not shown) [C4] | −13.76 |
| O=C(C1CCOCC1)N1CC(=O)N2[C@H](CO)[C@H](c3ccc(C#Cc4cccc(F)c4)cc3)[C@H]2C1 [compound 142] | −19.27 |
| Cc1ccccc1-c1ccc([C@H]2[C@H](CO)N3C(=O)CN(C(=O)c4cccnc4)C[C@@H]23)cc1 [compound 491] | −12.38 |
| O=C(CC1CC1)N1CC(=O)N2[C@H](C1)[C@H](c1ccc(C#Cc3ccccc3)cc1)[C@@H]2CO [compound 187] | −15.91 |

---

Biological target: Human N-His6-IDE42-1019 (E. coli expressed) (Homo sapiens, UniProt P14735)
Construct: Human N-His6-IDE42-1019 (E. coli expressed); made in house; host or cells: E. coli (Rosetta 2 (DE3) pLysS, plasmid pTrcHis-A)
Experiment: Fluorescence anisotropy high-throughput screening assay (displacement of probe FL-6b)
Assay type: binding
Settings: final compound concentration 20 μM (6bK control 1 μM); values without asterisk
Measure: Average Z-score (Fluorescence anisotropy)

| Molecule | Observed value |
| --- | --- |
| Cc1ccccc1-c1ccc([C@H]2[C@H](CO)N3C(=O)CN(C(=O)Cc4ccccn4)C[C@@H]23)cc1 | −17.72 |
| Cc1ccccc1-c1ccc([C@@H]2[C@@H](CO)N3CCCCN(S(C)(=O)=O)C[C@@H]23)cc1 | −17.90 |
| Cc1ccccc1-c1ccc([C@@H]2[C@@H](CO)N3CCCCN(S(=O)(=O)c4ccc(F)cc4)C[C@@H]23)cc1 | −17.51 |
| Cc1ccccc1-c1ccc(C2C3CN(C(=O)C4CCCCC4)CC2N3)cc1 (stereo not shown) | −13.8 |
| COc1ccccc1-c1ccc([C@H]2[C@@H](CO)N(C(=O)NC(C)C)[C@H]2C#N)cc1 [D2] | −16.33 |
| Cc1cccc(-c2ccc([C@@H]3[C@@H](CO)N4C(=O)CN(C(=O)Cc5ccccn5)C[C@@H]34)cc2)c1 | −11.8 |
| Cc1cccc(-c2ccc([C@@H]3[C@@H](CO)N4C(=O)CN(C(=O)c5cnccn5)C[C@@H]34)cc2)c1 | −17.51 |

---

Molecular target: recombinant human IDE42-1019 (Homo sapiens, UniProt P14735)
Construct: recombinant human IDE42-1019 (R&D Systems); purchased R&D Systems
Sequence (P14735 42-1019): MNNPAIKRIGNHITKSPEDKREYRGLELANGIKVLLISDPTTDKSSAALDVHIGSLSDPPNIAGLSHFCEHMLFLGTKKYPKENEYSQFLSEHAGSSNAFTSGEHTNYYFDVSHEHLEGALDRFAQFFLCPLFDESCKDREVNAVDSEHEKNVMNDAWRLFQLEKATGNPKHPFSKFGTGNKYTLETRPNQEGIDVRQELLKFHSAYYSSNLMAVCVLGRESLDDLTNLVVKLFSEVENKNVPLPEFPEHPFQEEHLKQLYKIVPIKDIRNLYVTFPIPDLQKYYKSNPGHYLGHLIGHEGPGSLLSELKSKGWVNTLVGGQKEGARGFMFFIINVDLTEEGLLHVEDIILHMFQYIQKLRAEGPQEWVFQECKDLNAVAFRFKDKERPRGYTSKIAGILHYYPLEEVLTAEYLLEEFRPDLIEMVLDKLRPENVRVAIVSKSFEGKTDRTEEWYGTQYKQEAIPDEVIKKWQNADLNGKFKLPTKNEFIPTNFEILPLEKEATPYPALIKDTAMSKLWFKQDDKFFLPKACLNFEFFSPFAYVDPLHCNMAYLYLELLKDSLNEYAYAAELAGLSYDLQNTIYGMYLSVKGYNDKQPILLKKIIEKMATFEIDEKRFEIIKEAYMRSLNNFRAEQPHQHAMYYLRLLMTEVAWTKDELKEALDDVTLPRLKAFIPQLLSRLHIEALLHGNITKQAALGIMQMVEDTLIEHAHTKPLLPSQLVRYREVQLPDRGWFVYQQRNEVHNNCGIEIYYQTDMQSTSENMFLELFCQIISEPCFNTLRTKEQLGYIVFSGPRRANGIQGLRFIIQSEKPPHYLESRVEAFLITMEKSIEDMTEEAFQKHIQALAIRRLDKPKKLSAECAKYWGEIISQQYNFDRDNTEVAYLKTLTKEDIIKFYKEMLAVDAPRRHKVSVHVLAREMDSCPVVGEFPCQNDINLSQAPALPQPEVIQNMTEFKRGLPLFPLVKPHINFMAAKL
Assay: Protease assay with fluorogenic peptide substrate Mca-[…](Dnp)-OH
Format: biochemical
Conditions: fluorogenic peptide Mca-RPPGFSAFK(Dnp)-OH; plateau at high inhibitor concentration; read-out: Imax (%) Proteolysis (inhibition maximum)
Measure: Emax (%)

| Compound | System tested | Measure | Observed value |
| --- | --- | --- | --- |
| Cc1ccccc1S(=O)(=O)N1CCCCN2C(C1)[C@H](c1ccc(-c3cccc(C)c3C)cc1)[C@H]2CO (stereo partly drawn) | recombinant human IDE42-1019 (Homo sapiens, UniProt P14735) | Emax | 65 |
| COc1ccccc1-c1ccc([C@H]2[C@@H](CO)N3CCCCN(C(=O)NC4CCCC4)C[C@H]23)cc1 | recombinant human IDE42-1019 (Homo sapiens, UniProt P14735) | Emax | 50 |
| Cc1ccccc1-c1ccc(C2C3CN(C(=O)C4CCOCC4)CC2N3)cc1 (stereo not drawn) | recombinant human IDE42-1019 (Homo sapiens, UniProt P14735) | Emax | 80 |
